B1: VDR (parent)
chain: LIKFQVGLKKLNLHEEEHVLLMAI

- Variants of: B1
- assay info: protein stability index of a GFP-peptide fusion (GPS, HEK-293T) (PSI 1-6); higher = more stable;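 also: lentivirally expressed fusions sorted by FACS into six bins by GFP to DsRed ratio, PSI derived from sequencing read proportions per bin multiplied by bin number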
- test conditions: c terminus: a fixed tail appended

# variant notation, protein stability index
measured = [
    ("G7A", 2.15),
    ("E17D", 2.28),
    ("Q5V", 2.77),
    ("M22Q", 2.36),
    ("I24A", 2.8),
    ("L21S", 2.08),
    ("G7C", 1.72),
    ("L11K", 2.98),
    ("G7S", 2.46),
    ("L20D", 1.19),
    ("K9T", 3.39),
    ("I24Y", 3.26),
    ("E15F", 2.77),
    ("E15T", 3.96),
    ("I2N", 2.31),
    ("E15L", 3.71),
    ("I24N", 2.74),
    ("V19Q", 3.04),
    ("M22S", 1.68),
    ("E16T", 2.81),
    ("L11M", 2.93),
    ("L20E", 2.24),
    ("I2T", 2.77),
    ("F4K", 3.04),
    ("V19I", 1.93),
    ("E15A", 2.52),
    ("G7F", 1.75),
    ("I24S", 1.97),
    ("H14K", 2.66),
    ("K3W", 2.91),
    ("A23L", 3.49),
    ("L13D", 1.74),
    ("I2H", 1.87),
    ("G7P", 1.3),
    ("L13S", 3.54),
    ("K10N", 1.9),
    ("E16L", 3.15),
    ("V19F", 2.52),
    ("H18T", 1.12),
    ("I2P", 2.73),
    ("L21D", 1.85),
    ("I24P", 1.21),
    ("N12E", 3.9),
    ("L1E", 1.56),
    ("L13V", 3.02),
    ("E16Q", 1.57),
    ("F4Y", 2.64),
    ("A23R", 2.37),
    ("F4T", 1.48),
    ("Q5P", 2.97),
    ("L1F", 2.01),
    ("E16I", 1.97),
    ("M22F", 2.88),
    ("M22I", 2.91),
    ("H14Y", 2.93),
    ("V19K", 1.99),
    ("K9H", 1.59),
    ("K9P", 3.16),
    ("L11A", 2.56),
    ("V19T", 2.52),
    ("L11T", 2.03),
    ("L8D", 3.48),
    ("K9Y", 4.29),
    ("Q5N", 1.79),
    ("L1V", 2.24),
    ("E17H", 2.34),
    ("K10T", 2.23),
    ("V6M", 3.76),
    ("L11Y", 2.28),
    ("A23Y", 3.16),
    ("K9R", 2.63),
    ("V6T", 2.73),
    ("H14D", 2.21),
    ("K3D", 2.21),
    ("V6S", 2.98),
    ("H14Q", 2.43),
    ("L21M", 2.45),
    ("M22W", 2.81),
    ("E16K", 1.77),
    ("K9F", 3.38),
    ("I24K", 2.69),
    ("L11R", 1.3),
    ("L8K", 2.85),
    ("F4E", 2.15),
    ("L1S", 3.27),
    ("E15W", 3.87),
    ("I2A", 3.06),
    ("K9Q", 3.62),
    ("L1M", 3.33),
    ("F4I", 3.75),
    ("V19A", 1.58),
]

Values compiled from the supplement of paper PMC10567573.
